# Organism: Rattus norvegicus
# assayInfo: In vitro relative potency for the inhibition of growth hormone release
# Type: functional
measuredParameter: Relative potency

[
  {
    "structure": "C[C@@H](O)[C@@H]1NC(=O)[C@H](CCCCN)NC(=O)[C@@H](Cc2c[nH]c3ccccc23)NC(=O)[C@H](Cc2ccccc2)NC(=O)CN2CC[C@H](NC1=O)C2=O",
    "measuredParameter": "Relative potency",
    "val": 0.004
  },
  {
    "structure": "C[C@@H](O)[C@@H]1NC(=O)[C@H](CCCCN)NC(=O)[C@H](Cc2c[nH]c3ccccc23)NC(=O)[C@H](Cc2ccccc2)NC(=O)CN2CCC[C@@H](NC1=O)C2=O",
    "measuredParameter": "Relative potency",
    "val": "< 0.005"
  },
  {
    "structure": "C[C@@H](O)[C@@H]1NC(=O)[C@H](CCCCN)N(C)C(=O)[C@@H](Cc2c[nH]c3ccccc23)NC(=O)[C@H](Cc2ccccc2)NC(=O)[C@@H]2CCCN2C(=O)[C@H](Cc2ccccc2)NC1=O",
    "measuredParameter": "Relative potency",
    "val": 1.6
  },
  {
    "structure": "C[C@@H](O)[C@@H]1NC(=O)[C@H](CCCCN)NC(=O)[C@@H](Cc2c[nH]c3ccccc23)NC(=O)[C@H](Cc2ccccc2)NC(=O)[C@H](C)N(C)C(=O)[C@H](Cc2ccccc2)NC1=O",
    "measuredParameter": "Relative potency",
    "val": 3.5
  },
  {
    "structure": "C[C@@H](O)[C@@H]1NC(=O)[C@H](CCCCN)NC(=O)[C@@H](Cc2c[nH]c3ccccc23)NC(=O)[C@H](Cc2ccccc2)NC(=O)CN2CC[C@@H](NC1=O)C2=O",
    "measuredParameter": "Relative potency",
    "val": 0.001
  },
  {
    "structure": "C[C@@H](O)[C@@H]1NC(=O)[C@H](CCCCN)NC(=O)[C@H](Cc2c[nH]c3ccccc23)NC(=O)[C@H](Cc2ccccc2)NC(=O)CN2CCC[C@H](NC1=O)C2=O",
    "measuredParameter": "Relative potency",
    "val": "< 0.005"
  }
]

---

Below: a set of entries, each annotated with reported half-life.
# assayInfo: Half life period was determined
# Format: ADME
Numbered stars: 1 amine (or outer) side, 2 acyl side, 3 side chain; on linkers, the order of the positions; unused ones are H or OH. Square brackets hold non-standard residues; d marks the D form. Peptide text beside a SMILES is read from it. * marks the point of attachment. ξ: configuration not given here. Doxorubicin(3'-N) = COc1cccc2c1C(=O)c1c(O)c3c(c(O)c1C2=O)C[C@@](O)(C(=O)CO)C[C@@H]3O[C@H]1C[C@H](N*)[C@H](O)[C@H](C)O1; X2 = COc1cccc2c1C(=O)c1c(O)c3c(c(O)c1C2=O)C[C@@](O)(C(=O)CO)C[C@@H]3O[C@H]1C[C@@H](N*)[C@H](O)[C@H](C)O1; X1 = COc1cccc2c1C(=O)c1c(O)c3c(c(O)c1C2=O)C[C@@](O)(C(=O)CO)C[C@@H]3OC1CC(N*)C(O)C(C)O1; ξPro(4R-OH) = O=C(O)C1C[C@@H](O)CN1; Glutaryl = O=C(CCCC(=O)[*:2])[*:1]; Hyp = O=C(O)[C@@H]1C[C@@H](O)CN1; Chg = N[C@H](C(=O)O)C1CCCCC1; Suc = O=C(CCC(=O)[*:2])[*:1]
measuredParameter: half-life (min)

[
  {
    "molecule": "COc1cccc2c1C(=O)c1c(O)c3c(c(O)c1C2=O)C[C@@](O)(C(=O)CO)C[C@@H]3O[C@H]1C[C@@H](NC(=O)[C@H](CC(C)C)NC(=O)[C@H](CO)NC(=O)[C@H](CCC(N)=O)NC(=O)[C@@H](NC(=O)[C@H](CO)NC(=O)[C@H](C)NC(=O)[C@@H]2C[C@@H](O)CN2C(=O)CCCC(=O)O)C2CCCCC2)[C@H](O)[C@H](C)O1 (Glutaryl-[Hyp]AS[Chg]QSL-X2)",
    "measuredParameter": "half-life",
    "unitsLabel": "min",
    "val": 30
  },
  {
    "molecule": "COc1cccc2c1C(=O)c1c(O)c3c(c(O)c1C2=O)C[C@@](O)(C(=O)CO)C[C@@H]3OC1CC(NC(=O)[C@H](CC(C)C)NC(=O)[C@H](CO)NC(=O)[C@H](CCC(N)=O)NC(=O)[C@H](Cc2ccc(O)cc2)NC(=O)[C@H](CO)NC(=O)[C@H](C)NC(=O)[C@H](CCCCN)NC(C)=O)C(O)C(C)O1 (some centres not stated) (Ac-KASYQSL-X1)",
    "measuredParameter": "half-life",
    "unitsLabel": "min",
    "val": 30
  },
  {
    "molecule": "CC[C@]1(O)CC[C@@H]2CN1CCC1c3ccccc3NC1[C@@H](c1cc3c(cc1OC)N(C)C1C34CCN3CC=C[C@](CC)(C34)[C@@H](OC(=O)[C@@H]3CCCN3C(=O)[C@H](CO)NC(=O)[C@H](CO)NC(=O)[C@H](CCC(N)=O)NC(=O)[C@@H](NC(=O)[C@H](CO)NC(=O)[C@H](CO)NC(=O)[C@@H]3CC(O)CN3C(C)=O)C3CCCCC3)[C@]1(O)C(=O)OC)[C@H]2C(=O)OC (some centres not stated)",
    "measuredParameter": "half-life",
    "unitsLabel": "min",
    "val": 12
  },
  {
    "molecule": "COc1cccc2c1C(=O)c1c(O)c3c(c(O)c1C2=O)C[C@@](O)(C(=O)CO)C[C@@H]3OC1CC(NC(=O)[C@H](CC(C)C)NC(=O)[C@H](CO)NC(=O)[C@H](CCC(N)=O)NC(=O)[C@@H](NC(=O)[C@H](CO)NC(=O)[C@H](C)NC(=O)C2C[C@@H](O)CN2C(C)=O)C2CCCCC2)C(O)C(C)O1 (stereo partly drawn) (Ac-[ξPro(4R-OH)]AS[Chg]QSL-X1)",
    "measuredParameter": "half-life",
    "unitsLabel": "min",
    "val": 20
  },
  {
    "molecule": "COc1cccc2c1C(=O)c1c(O)c3c(c(O)c1C2=O)C[C@@](O)(C(=O)CO)C[C@@H]3OC1CC(NC(=O)[C@H](CC(C)C)NC(=O)[C@H](CO)NC(=O)[C@H](CCC(N)=O)NC(=O)[C@@H](NC(=O)[C@H](CO)NC(=O)[C@H](C)NC(=O)C2C[C@@H](O)CN2C(=O)CCC(=O)O)C2CCCCC2)C(O)C(C)O1 (stereo partly drawn) (Suc-[ξPro(4R-OH)]AS[Chg]QSL-X1)",
    "measuredParameter": "half-life",
    "unitsLabel": "min",
    "val": 55
  },
  {
    "molecule": "COc1cccc2c1C(=O)c1c(O)c3c(c(O)c1C2=O)C[C@@](O)(C(=O)CO)C[C@@H]3OC1CC(NC(=O)[C@H](CC(C)C)NC(=O)[C@H](CO)NC(=O)[C@H](CCC(N)=O)NC(=O)[C@@H](NC(=O)[C@H](CO)NC(=O)[C@H](C)NC(=O)[C@H](CCCCN)NC(C)=O)C2CCCCC2)C(O)C(C)O1 (some centres not stated) (Ac-KAS[Chg]QSL-X1)",
    "measuredParameter": "half-life",
    "unitsLabel": "min",
    "val": 10
  },
  {
    "molecule": "COc1cccc2c1C(=O)c1c(O)c3c(c(O)c1C2=O)C[C@@](O)(C(=O)CO)C[C@@H]3O[C@H]1C[C@H](NC(=O)[C@H](CC(C)C)NC(=O)[C@H](CO)NC(=O)[C@H](CO)NC(=O)[C@H](CCC(N)=O)NC(=O)[C@H](Cc2ccc(O)cc2)NC(=O)[C@H](CO)NC(=O)[C@H](C)NC(=O)[C@H](CCCCN)NC(=O)[C@H](CC(N)=O)NC(=O)[C@H](C)NC(C)=O)[C@H](O)[C@H](C)O1 (Ac-ANKASYQSSL-{Doxorubicin(3'-N)})",
    "measuredParameter": "half-life",
    "unitsLabel": "min",
    "val": 100
  }
]

---

# Tested on: DuPro
# assayInfo: In vitro effective concentration against DuPRO cancer cell line
# Type: functional, cell-based
# experimentalParameters: Homo sapiens
pEC50: −log10 of the molar value. Numbered stars: 1 amine (or outer) side, 2 acyl side, 3 side chain; on linkers, the order of the positions; unused ones are H or OH. Square brackets hold non-standard residues; d marks the D form. Peptide text beside a SMILES is read from it. * marks the point of attachment. ξ: configuration not given here. Doxorubicin(3'-N) = COc1cccc2c1C(=O)c1c(O)c3c(c(O)c1C2=O)C[C@@](O)(C(=O)CO)C[C@@H]3O[C@H]1C[C@H](N*)[C@H](O)[C@H](C)O1; X2 = COc1cccc2c1C(=O)c1c(O)c3c(c(O)c1C2=O)C[C@@](O)(C(=O)CO)C[C@@H]3O[C@H]1C[C@@H](N*)[C@H](O)[C@H](C)O1; X1 = COc1cccc2c1C(=O)c1c(O)c3c(c(O)c1C2=O)C[C@@](O)(C(=O)CO)C[C@@H]3OC1CC(N*)C(O)C(C)O1; ξPro(4R-OH) = O=C(O)C1C[C@@H](O)CN1; Glutaryl = O=C(CCCC(=O)[*:2])[*:1]; Hyp = O=C(O)[C@@H]1C[C@@H](O)CN1; Chg = N[C@H](C(=O)O)C1CCCCC1; Suc = O=C(CCC(=O)[*:2])[*:1]

[
  {
    "molecule": "COc1cccc2c1C(=O)c1c(O)c3c(c(O)c1C2=O)C[C@@](O)(C(=O)CO)C[C@@H]3O[C@H]1C[C@H](NC(=O)[C@H](CC(C)C)NC(=O)[C@H](CO)NC(=O)[C@H](CO)NC(=O)[C@H](CCC(N)=O)NC(=O)[C@H](Cc2ccc(O)cc2)NC(=O)[C@H](CO)NC(=O)[C@H](C)NC(=O)[C@H](CCCCN)NC(=O)[C@H](CC(N)=O)NC(=O)[C@H](C)NC(C)=O)[C@H](O)[C@H](C)O1 (Ac-ANKASYQSSL-{Doxorubicin(3'-N)})",
    "boundOperator": "<",
    "pEC50": 4.00
  },
  {
    "molecule": "COc1cccc2c1C(=O)c1c(O)c3c(c(O)c1C2=O)C[C@@](O)(C(=O)CO)C[C@@H]3OC1CC(NC(=O)[C@H](CC(C)C)NC(=O)[C@H](CO)NC(=O)[C@H](CCC(N)=O)NC(=O)[C@@H](NC(=O)[C@H](CO)NC(=O)[C@H](C)NC(=O)C2C[C@@H](O)CN2C(C)=O)C2CCCCC2)C(O)C(C)O1 (stereo partly drawn) (Ac-[ξPro(4R-OH)]AS[Chg]QSL-X1)",
    "boundOperator": "=",
    "pEC50": 4.00
  },
  {
    "molecule": "COc1cccc2c1C(=O)c1c(O)c3c(c(O)c1C2=O)C[C@@](O)(C(=O)CO)C[C@@H]3OC1CC(NC(=O)[C@H](CC(C)C)NC(=O)[C@H](CO)NC(=O)[C@H](CCC(N)=O)NC(=O)[C@@H](NC(=O)[C@H](CO)NC(=O)[C@H](C)NC(=O)[C@H](CCCCN)NC(C)=O)C2CCCCC2)C(O)C(C)O1 (stereo partly specified) (Ac-KAS[Chg]QSL-X1)",
    "boundOperator": "<",
    "pEC50": 4.00
  },
  {
    "molecule": "COc1cccc2c1C(=O)c1c(O)c3c(c(O)c1C2=O)C[C@@](O)(C(=O)CO)C[C@@H]3OC1CC(NC(=O)[C@H](CC(C)C)NC(=O)[C@H](CO)NC(=O)[C@H](CCC(N)=O)NC(=O)[C@@H](NC(=O)[C@H](CO)NC(=O)[C@H](C)NC(=O)C2C[C@@H](O)CN2C(=O)CCC(=O)O)C2CCCCC2)C(O)C(C)O1 (stereo partly drawn) (Suc-[ξPro(4R-OH)]AS[Chg]QSL-X1)",
    "boundOperator": "=",
    "pEC50": 4.00
  },
  {
    "molecule": "COc1cccc2c1C(=O)c1c(O)c3c(c(O)c1C2=O)C[C@@](O)(C(=O)CO)C[C@@H]3OC1CC(NC(=O)C(N)CC(C)C)C(O)C(C)O1 (stereo partly specified)",
    "boundOperator": "=",
    "pEC50": 4.85
  },
  {
    "molecule": "COc1cccc2c1C(=O)c1c(O)c3c(c(O)c1C2=O)C[C@@](O)(C(=O)CO)C[C@@H]3O[C@H]1C[C@@H](NC(=O)[C@H](CC(C)C)NC(=O)[C@H](CO)NC(=O)[C@H](CCC(N)=O)NC(=O)[C@@H](NC(=O)[C@H](CO)NC(=O)[C@H](C)NC(=O)[C@@H]2C[C@@H](O)CN2C(=O)CCCC(=O)O)C2CCCCC2)[C@H](O)[C@H](C)O1 (Glutaryl-[Hyp]AS[Chg]QSL-X2)",
    "boundOperator": "<",
    "pEC50": 4.00
  }
]
